# Tested on: SK-MEL-2 melanoma
# RUN_DESCRIPTION: NCI tumour cell line growth inhibition, 48 h
TGI values for the compounds below.

Please review the following examples before continuing.
INSERT INTO results (compound, result) VALUES
  ('Cc1c(O)c(=O)ccn1C1OC(CO)C(O)C1O (stereo not drawn)', '> 100 µM'),
  ('O=C(O)c1c(CC(Cc2ccc3c(c2)CCCC3)C(=O)O)ccc2c1CCCC2 (stereo not drawn)', '> 100 µM'),
  ('O=C(Oc1ccc([N+](=O)[O-])cc1)N1CCN(Cc2cccc(Oc3ccccc3)c2)CC1', '> 100 µM'),
  ('COc1cc2c3c(n(CCCN4CCN(C)CC4)c(=O)c2cc1OC)-c1cc2c(cc1C3=O)OCO2', '> 100 µM'),
  ('NC(=O)c1csc(C2C=CC(CO)O2)n1 (stereo not drawn)', '> 100 µM'),
  ('O=C1Oc2ccccc2C(=O)/C1=C/N1C(=O)/C(=C/c2ccc([N+](=O)[O-])cc2)SC1=S', '82.4 µM');

Reported TGI of C[n+]1c2ccccc2c(CNC(CCC(N)=O)C(=O)O)c2ccccc21 (stereo not drawn) : 12 µM

Reported TGI of `CCCCCCCCCCCCCC/C(C(=O)OC)=C(/O)C(=O)OCC` : 32 µM

Reported TGI of `O=C1c2cccnc2-c2nc(/C=C/c3ccccc3)cc3c2c1nc1ccccc13` : 4.99 µM
